Listed compounds paired with reported melting point

>  <Compound>
CC1(C)CC(=O)CC(C)(C)N1C#N

>  <Value reported>
75 to 76 °C

$$$$
>  <Compound>
Nc1ccc([N+](=O)[O-])cc1C(=O)c1ccccc1Cl

>  <Value reported>
138 to 139 °C

$$$$

Return melting point (reported value) for this compound: `CCOC(=O)c1cn(NC=O)c2cc(Cl)c(F)cc2c1=O`
263 to 264 °C

Return melting point (reported value) for this compound: COc1ccc(C2=NN(c3ccccc3)C(=O)[C@H]3CC=CC[C@@H]23)cc1OC1CCCC1 (relative stereo)
134 to 135 °C

Return melting point (reported value) for this compound: `CCc1ccccc1-c1cccc2[nH]c(C(=O)O)cc12`
230 to 233 °C

====

Experimental readout: melting point

>  <Compound>
C=CC1(CC)OC(=O)c2ccc(Oc3ccc(C(F)(F)F)cc3Cl)cc21 (stereo unspecified)

>  <melting point>
77 to 79 °C

$$$$
>  <Compound>
CC(C)NCC1(O)COc2ccc([N+](=O)[O-])cc2OC1 (stereo unspecified)

>  <melting point>
97.5 to 99 °C

$$$$
>  <Compound>
O=C(O)CCc1cnoc1-c1ccc([N+](=O)[O-])cc1

>  <melting point>
204 to 205 °C

$$$$
>  <Compound>
CCOC(=O)C(=CNc1nncs1)C(=O)OCC

>  <melting point>
107 to 111 °C

$$$$
>  <Compound>
Cc1ccc(Cc2cnc(NCCCCc3ncc(Br)cc3N)[nH]c2=O)cn1

>  <melting point>
196 to 197 °C

$$$$
>  <Compound>
O=C(O)C1Cc2c(ccc3c(=O)c4c(F)cccc4oc23)O1 (stereo unspecified)

>  <melting point>
262 to 265 °C

$$$$
>  <Compound>
CC(C)Sc1sc(-c2nnn[nH]2)c2c1C(=O)CC(C)(C)C2

>  <melting point>
228 to 230 °C

$$$$
>  <Compound>
COc1ccc(-c2cc(C(=O)NCc3ccccn3)c(=O)n(CC3CCCC3)n2)cc1

>  <melting point>
127 to 128 °C

$$$$
>  <Compound>
CC(C)[Si](C)(C)CCSCCNC(=O)n1cc(F)c(=O)[nH]c1=O

>  <melting point>
85 to 86 °C

$$$$
>  <Compound>
O=C(c1ccccc1)c1ccc2nc(-c3ccc[nH]3)[nH]c2c1

>  <melting point>
128 to 133 °C

$$$$

Return melting point (reported value) for this compound: c1ccc(C2Nc3c4c(nc5ccccc35)CCCC4O2)cc1 (stereo unspecified)
225 to 235 °C

Return melting point (reported value) for this compound: COc1c(F)cc2c(=O)c(C(=O)O)cn3c2c1CCC3C (stereo unspecified)
234 to 236 °C

Return melting point (reported value) for this compound: `CC(C)CCCOc1c(-c2ccc(S(C)(=O)=O)cc2)cnn(-c2ccc(F)cc2)c1=O`
123 to 125 °C

Return melting point (reported value) for this compound: `Cc1nc(N2CCN(Cc3ccc(F)cc3)C2=O)sc1C(N)=O`
201 to 203 °C

====

Respond with true for melting point values of 100 °C and above, false for values below.

Example entries and their recorded answers appear below.
>  <Compound>
CCCOC(=O)C1=C(N)NC(C)=C(C(=O)OC(C)C)C1c1cccc([N+](=O)[O-])c1 (stereo not given)

>  <Class name>
true

$$$$
>  <Compound>
O=C(NC(O)C(F)(F)F)c1ccc(Cl)cc1 (stereo not given)

>  <Class name>
true

$$$$
>  <Compound>
CCCCCCCCCCCCCC(=O)NC1CC(C)(C)N(CC#N)C(C)(C)C1

>  <Class name>
true

$$$$
>  <Compound>
O=C(C=Cc1ccc(Cl)cc1)C1(Cl)CC1

>  <Class name>
false

$$$$

Moving on to another compound below.
Quick check, melting point >= 100 °C? `COc1ccc2c(=O)c3cccc(OCc4ccccc4)c3oc2c1`
true

====

Listed compounds paired with reported melting point

>  <Compound>
COc1cc2ncc(C#N)c(Nc3cccc(CO)c3C)c2cc1OC

>  <melting point>
123 to 125 °C

$$$$
>  <Compound>
Oc1cc(Br)cnc1F

>  <melting point>
146 °C

$$$$

Return melting point (reported value) for this compound: `CP(C)(=O)CCCOC(=O)c1ccccc1Nc1ccnc2cc(Cl)ccc12`
162 °C

====

Listed molecules paired with reported melting point
Return type: number; implicit unit °C.

>  <Record smiles>
COc1ccc(SCn2cc(Cl)cnc2=O)cc1

>  <melting point, °C>
140

$$$$

Proceed to the following item.
Return melting point (reported value) for this molecule: `Cc1ccc(C(OS(=O)(=O)c2c(C)cc(C)c(S(=O)(=O)OC(c3ccc(C)cc3)(C(F)(F)F)C(F)(F)F)c2C)(C(F)(F)F)C(F)(F)F)cc1`
178

====

Experimental readout: melting point

Examples from the recorded data:
>  <Compound>
O=C(c1ccc(O)cc1)c1ccc(O)c(Cl)c1Cl

>  <Value reported>
208 to 210 °C

$$$$
>  <Compound>
C#CCOc1ccc(C2c3[nH]c4ccccc4c3CC(C(=O)OC)N2C(=O)CCl)cc1 (stereo not given)

>  <Value reported>
218 °C

$$$$
>  <Compound>
COC(=O)[C@@]12CN(Cc3ccccc3)C[C@@H]1[C@@](O)(c1ccc(SC)cc1)CC[C@H]2c1ccccc1 (racemic)

>  <Value reported>
124 to 126 °C

$$$$
>  <Compound>
CCOC(=O)C1(C(=O)N(C)c2cccc3cc(-c4nccs4)[nH]c23)CCC1

>  <Value reported>
197 °C

$$$$

Return melting point (reported value) for this compound: `COc1ccc(C(=O)CC(C)(C)C(=O)O)c2c1OC(C)(C)C2`
159 to 160 °C

Return melting point (reported value) for this compound: `CC(=O)Nc1ccc2nc(-c3cc(C)c(OCCO)c(C)c3)[nH]c(=O)c2c1`
> 300 °C

Return melting point (reported value) for this compound: `N#Cc1ccc(NC2CCN(Cc3cccc(C(F)(F)F)c3)CC2)nn1`
170 °C

Return melting point (reported value) for this compound: `CC(C)n1c(=O)nc(N(C)C)[nH]c1=O`
213 to 214 °C

Return melting point (reported value) for this compound: `C#Cc1cc(C)nc(C(=O)Nc2ccn(C)n2)c1`
226 °C

Return melting point (reported value) for this compound: `CC(C)(C)c1ccc(CCN2C(=O)COc3ccc(C=C4SC(=S)NC4=O)cc32)cc1`
283 to 285 °C

Return melting point (reported value) for this compound: `COc1ccc2c(=O)n3c(cc2c1)S(=O)(=O)CCC3`
256 to 257 °C

Return melting point (reported value) for this compound: `COc1cc2ccc(C(=O)CBr)cc2cc1OC`
120 to 122 °C

Return melting point (reported value) for this compound: `FC(F)(F)c1ccccc1OCCCc1cn(C(c2ccccc2)(c2ccccc2)c2ccccc2)cn1`
204 to 208 °C

Return melting point (reported value) for this compound: CC1(c2ccccc2)OC(=O)Nc2ccc(-c3cccc(Cl)c3)cc21 (stereo not given)
179 to 180 °C

Return melting point (reported value) for this compound: `Cc1nc2ccc(Cl)cc2n2c(-c3ccccc3Cl)nnc12`
209 °C

Return melting point (reported value) for this compound: `CON=C(C(=O)OC)c1cc(C)c(C)cc1COc1ccccc1C`
82 to 84 °C

====

Experimental readout: melting point

>  <Compound>
c1csc(-c2nc(CCOc3ccc(CCCn4ccnc4)cc3)co2)c1

>  <melting point>
77 to 78 °C

$$$$

Return melting point (reported value) for this compound: `CSc1nc2nc3cc(C(F)(F)F)ccc3cc2[nH]1`
> 270 °C

Return melting point (reported value) for this compound: `CS(=O)(=O)c1cncc(-c2nc(=O)c3ccccc3s2)n1`
232 to 233 °C

Return melting point (reported value) for this compound: `Cc1cc2c(-c3cccc(C(F)(F)F)c3)nc(COCC(F)(F)F)nc2s1`
40 to 41 °C

Return melting point (reported value) for this compound: CC(COc1ccc(O)c(C(N)=O)c1)NCc1ccccc1 (configuration not stated)
102 to 104 °C

Return melting point (reported value) for this compound: `O=C(O)c1ccc(NCCc2ccc(F)cc2)cc1`
161 to 163 °C

Return melting point (reported value) for this compound: `CCOC(=O)c1sc(N(C)C)c2c1CCc1cnn(C)c1-2`
118 to 119 °C

Return melting point (reported value) for this compound: `O=c1cc(C(F)(F)F)ccn1-c1c(Cl)cc(CF)cc1Cl`
121 to 122 °C

Return melting point (reported value) for this compound: `Cc1ccccc1CN1CCC(c2cc(-c3ccc(Cl)cc3)[nH]n2)CC1`
142 to 143 °C

Return melting point (reported value) for this compound: `COc1ccc(C(=O)CCC#N)cc1`
94 °C

Return melting point (reported value) for this compound: `CCOC(=O)c1ccc(-c2c(Cl)c(CCl)nc3sc4c(c23)CCN(C(=O)OCc2ccccc2)C4)cc1`
123 to 124 °C
